metric: IC50 (µM)
Give just the numeric value; µM need not be written.

Q: Report value: IC50, system: KDM2A (Homo sapiens), compound: O=C(O)c1cnc(SCCCc2ccccc2)[nH]c1=O
Sequence (Q9Y2K7 1-517): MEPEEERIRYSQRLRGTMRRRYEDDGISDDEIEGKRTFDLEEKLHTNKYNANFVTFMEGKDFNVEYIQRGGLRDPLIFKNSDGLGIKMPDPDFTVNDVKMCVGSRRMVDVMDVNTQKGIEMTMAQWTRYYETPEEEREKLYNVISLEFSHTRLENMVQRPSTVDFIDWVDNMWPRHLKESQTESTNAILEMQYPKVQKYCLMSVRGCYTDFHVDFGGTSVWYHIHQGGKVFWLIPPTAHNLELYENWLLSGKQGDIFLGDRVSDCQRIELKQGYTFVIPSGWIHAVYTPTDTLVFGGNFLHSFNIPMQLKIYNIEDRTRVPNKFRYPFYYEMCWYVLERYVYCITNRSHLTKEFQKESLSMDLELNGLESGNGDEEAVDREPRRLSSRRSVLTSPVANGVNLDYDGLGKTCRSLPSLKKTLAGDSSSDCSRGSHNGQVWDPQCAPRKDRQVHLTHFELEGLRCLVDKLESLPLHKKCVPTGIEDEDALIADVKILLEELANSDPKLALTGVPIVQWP
Result: 68.3

Q: Give IC50 for CSc1ncc(C(=O)O)c(=O)[nH]1 tested on KDM2A (Homo sapiens).
Result: 69.6

Q: Report measured IC50 on KDM2A (Homo sapiens); entry: O=C(O)/C=C\Sc1ncc(C(=O)O)c(=O)[nH]1
Result: 63.3

Q: Quote KDM2A (Homo sapiens) IC50 for entry O=C(O)c1cnc(SCCc2ccccc2)[nH]c1=O .
Result: 52.7

Q: Quote KDM2A (Homo sapiens) IC50 for entry CCCCSc1ncc(C(=O)O)c(=O)[nH]1 .
Result: 24.2

Q: Specify IC50 for O=C(O)c1cnc(SCC2CCCCC2)[nH]c1=O , system KDM2A (Homo sapiens).
Result: 97.9

Q: Check KDM2A (Homo sapiens) data and give IC50 for CCOC(=O)/C=C\Sc1ncc(C(=O)O)c(=O)[nH]1 .
Result: 61.2

* * *

For each record, write down the corresponding IC50.
# tested.system: NO66 (Homo sapiens)
# Construct: histidine tag (TEV-cleavable) (cleaved yes); made in house; host or cells: E. coli BL21(DE3)-R3-pRARE2
# Sequence (Q9H6W3 183-641): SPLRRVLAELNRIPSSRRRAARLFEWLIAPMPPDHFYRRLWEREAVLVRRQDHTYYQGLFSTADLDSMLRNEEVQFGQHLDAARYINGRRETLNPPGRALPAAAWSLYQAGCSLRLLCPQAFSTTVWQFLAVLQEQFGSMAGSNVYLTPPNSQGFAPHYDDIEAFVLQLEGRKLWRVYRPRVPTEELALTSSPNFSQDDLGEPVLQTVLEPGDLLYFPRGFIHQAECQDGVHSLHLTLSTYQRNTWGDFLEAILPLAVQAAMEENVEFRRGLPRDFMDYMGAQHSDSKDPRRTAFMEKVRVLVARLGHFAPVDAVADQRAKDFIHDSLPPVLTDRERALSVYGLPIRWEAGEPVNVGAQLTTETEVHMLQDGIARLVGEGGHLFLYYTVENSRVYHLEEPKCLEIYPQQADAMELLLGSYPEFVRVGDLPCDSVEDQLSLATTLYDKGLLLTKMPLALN
# assay.info: NO66 MS (RapidFire) hydroxylation inhibition assay, Rpl8 peptide
# Assay type: biochemical
# study.conditions: IC50 NO66 (300 nM), MS based; enzyme 300 nM; means ± SD of at least three experiments
Field format: number, assumed µM, no unit text.

Q: Specify IC50 for CCCCCSc1ncc(C(=O)O)c(=O)[nH]1 [compound 4] and stop.
Result: 81.2

Q: Supply recorded IC50 for O=C(O)c1cnc(SCC2CCCCC2)[nH]c1=O [compound 6] here.
Result: 182

Q: Respond only with IC50 recorded for O=C(O)c1cnc(SCCc2ccccc2)[nH]c1=O [compound 9]
Result: 71.7

Q: For the molecule CCCCSc1ncc(C(=O)O)c(=O)[nH]1 [compound 3] , give its measured IC50 value.
Result: 163

Q: Find the measured IC50 of O=C(O)c1cnc(SCc2ccccc2)[nH]c1=O [compound 7] and report it.
Result: 48

Q: // Input: CSc1ncc(C(=O)O)c(=O)[nH]1 [compound 2] . Output its IC50 only.
Result: 40.2

Q: Provide IC50 value for the following molecule: O=C(O)/C=C\Sc1ncc(C(=O)O)c(=O)[nH]1 [compound 13]
Result: 100

Q: Consider the molecule CCOC(=O)/C=C\Sc1ncc(C(=O)O)c(=O)[nH]1 [compound 12] . State its measured IC50.
Result: 80.2

Q: Let me know recorded IC50 for O=C(O)c1cnc(SCCCCc2ccccc2)[nH]c1=O [compound 11] , thanks.
Result: 22.9

Q: Provide one value: measured IC50 of O=C(CSc1ncc(C(=O)O)c(=O)[nH]1)c1ccccc1 [compound 8]
Result: 23.5

Q: For O=C(O)c1cnc(SCCCc2ccccc2)[nH]c1=O [compound 10] , write its IC50.
Result: 36.9

* * *

# tested.system: KDM6B (Homo sapiens, UniProt O15054)
# Sequence (O15054 1141-1643 limits assumed): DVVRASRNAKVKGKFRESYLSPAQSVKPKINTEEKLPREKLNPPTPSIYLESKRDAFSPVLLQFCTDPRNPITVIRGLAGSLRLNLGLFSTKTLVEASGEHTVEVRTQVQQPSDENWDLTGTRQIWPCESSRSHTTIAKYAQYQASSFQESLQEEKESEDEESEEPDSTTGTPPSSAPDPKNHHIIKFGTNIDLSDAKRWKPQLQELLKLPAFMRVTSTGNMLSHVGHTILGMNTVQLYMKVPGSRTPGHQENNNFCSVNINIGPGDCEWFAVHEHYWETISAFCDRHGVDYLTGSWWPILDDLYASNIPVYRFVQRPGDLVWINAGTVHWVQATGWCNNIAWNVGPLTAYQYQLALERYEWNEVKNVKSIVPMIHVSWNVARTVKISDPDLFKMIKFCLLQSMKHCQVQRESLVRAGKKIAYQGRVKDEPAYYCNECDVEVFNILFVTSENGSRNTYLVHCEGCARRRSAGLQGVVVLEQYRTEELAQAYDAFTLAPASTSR
Friendly reminder: IC50 below 70 µM is yes, at or above is no.

Q: IC50 under 70 µM? Item: O=C(CSc1ncc(C(=O)O)c(=O)[nH]1)c1ccccc1 [compound 8]
Result: yes

Q: Is 70 µM strictly greater than the molecule's reported IC50? molecule: CCOC(=O)/C=C\Sc1ncc(C(=O)O)c(=O)[nH]1 [compound 12]
Result: yes

Q: Quick check: does O=C(O)c1cnc(SCc2ccccc2)[nH]c1=O [compound 7] have IC50 under 70 µM?
Result: no

Q: Consider CCCCCSc1ncc(C(=O)O)c(=O)[nH]1 [compound 4] . Does its IC50 lie strictly below 70 µM?
Result: yes

Q: Field: below-cutoff. Rule: recorded IC50 strictly less than 70 µM. Subject: O=C(O)c1cnc(SCCc2ccccc2)[nH]c1=O [compound 9]
Result: yes

Q: Hello, I'm reviewing records and need to know if IC50 of O=C(O)/C=C\Sc1ncc(C(=O)O)c(=O)[nH]1 [compound 13] is below 70 µM. Could you check?
Result: no

Q: Problem: For the molecule O=C(O)c1cnc(SCCCCc2ccccc2)[nH]c1=O [compound 11] , is IC50 under 70 µM?
Result: yes

Q: Lab note: confirm whether the reported IC50 for this molecule is below 70 µM, equality not counting. molecule: CCCCSc1ncc(C(=O)O)c(=O)[nH]1 [compound 3]
Result: yes

* * *

# tested.system: MINA53 (Homo sapiens)
# Construct: MINA53 (Met1-Val464 and Ala26-Val464); histidine tag (TEV-cleavable) (cleaved yes); made in house; host or cells: E. coli BL21(DE3)-R3-pRARE2
# Sequence (Q8IUF8 1-464 isoform Q8IUF8-4): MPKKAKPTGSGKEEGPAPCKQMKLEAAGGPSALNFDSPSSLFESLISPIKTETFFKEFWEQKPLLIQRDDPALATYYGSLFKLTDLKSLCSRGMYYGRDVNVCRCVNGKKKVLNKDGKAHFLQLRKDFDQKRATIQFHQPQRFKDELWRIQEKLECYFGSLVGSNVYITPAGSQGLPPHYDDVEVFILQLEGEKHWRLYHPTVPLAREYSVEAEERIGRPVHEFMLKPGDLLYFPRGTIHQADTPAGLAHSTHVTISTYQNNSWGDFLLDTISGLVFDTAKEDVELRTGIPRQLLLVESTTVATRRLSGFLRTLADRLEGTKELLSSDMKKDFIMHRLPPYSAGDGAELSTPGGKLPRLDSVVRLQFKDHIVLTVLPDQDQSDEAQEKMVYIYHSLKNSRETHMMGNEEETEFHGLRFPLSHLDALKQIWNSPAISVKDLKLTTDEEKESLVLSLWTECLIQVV
# assay.info: MINA53 MS (RapidFire) hydroxylation inhibition assay, Rpl27a peptide
# Assay type: biochemical
# study.conditions: Table S12; read-out: MINA53 IC50 (Table S12)
metric: IC50

Q: Input COC(=O)c1cnc(SCCCc2ccccc2)[nH]c1=O , output reported IC50.
Result: > 100 µM

* * *

# tested.system: MINA53 (Homo sapiens)
# Construct: MINA53 (Met1-Val464 and Ala26-Val464); histidine tag (TEV-cleavable) (cleaved yes); made in house; host or cells: E. coli BL21(DE3)-R3-pRARE2
# assay.info: MINA53 MS (RapidFire) hydroxylation inhibition assay, Rpl27a peptide
# Assay type: biochemical
# study.conditions: MINA53 (Met1-Val464); means ± 95% confidence, n = 3; read-out: IC50 value, MINA53 (assay validation, Figure S7)
Please go through the items and note down their pIC50.
Value format note: pIC50 is -log10 of concentration (mol/L); just state the number.

Q: Supply pIC50 value. Item: O=C(O)c1ccc(O)c2ncccc12 [IOX-1, reference compound]
Result: 3.99

Q: Answer with the recorded pIC50 of O=C(O)CNC(=O)C(=O)O [NOG, N-oxalylglycine, reference compound] only.
Result: 5.74

* * *

# tested.system: NO66 (Homo sapiens)
# Construct: histidine tag (TEV-cleavable) (cleaved yes); made in house; host or cells: E. coli BL21(DE3)-R3-pRARE2
# assay.info: NO66 MS (RapidFire) hydroxylation inhibition assay, Rpl8 peptide
# Type: biochemical
# study.conditions: NO66 (Ser183-Asn641); means ± 95% confidence, n = 3; read-out: IC50 value, NO66 (assay validation, Figure S7)
Field: IC50. Provide a value for each of the molecules that follow.
Report only the number, with the unit µM understood.

Q: Give the reported value of IC50 for this record: O=C(O)CNC(=O)C(=O)O [NOG, N-oxalylglycine, reference compound]
Result: 3.5

Q: Assign IC50 to the following record: O=C(O)c1ccnc(C(=O)O)c1 [2,4-PDCA, pyridine-2,4-dicarboxylate, reference compound]
Result: 0.11

Q: Provide IC50 value for the following molecule: O=C(O)c1ccc(O)c2ncccc12 [IOX-1, reference compound]
Result: 38.5

* * *

Please go through the items and note down their remaining activity at 100 µM.
# tested.system: PCAF (Homo sapiens, UniProt Q92831)
# Construct: purchased Reaction Biology Corporation, Malvern, PA, USA
# Sequence (Q92831 492-658): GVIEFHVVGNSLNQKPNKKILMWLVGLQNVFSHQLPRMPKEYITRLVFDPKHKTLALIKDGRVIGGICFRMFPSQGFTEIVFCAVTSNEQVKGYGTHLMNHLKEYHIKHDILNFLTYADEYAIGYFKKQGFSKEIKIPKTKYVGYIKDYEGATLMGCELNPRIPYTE
# assay.info: HotSpot KAT assay
# Format: biochemical
# study.conditions: means ± SD of three experiments, read-out: Residual Enzymatic Activity (%) PCAF
Give the quantity in %, number only.

Q: # return recorded remaining activity at 100 µM for input O=C(O)c1cnc(SCCCCc2ccccc2)[nH]c1=O
Result: 100

Q: Supply recorded remaining activity at 100 µM for O=C(O)c1cnc(SCc2ccccc2)[nH]c1=O here.
Result: 101

Q: Fill in reported remaining activity at 100 µM for this entry: O=C(O)/C=C\Sc1ncc(C(=O)O)c(=O)[nH]1
Result: 104

Q: State its remaining activity at 100 µM: O=C(O)c1cnc(SCC2CCCCC2)[nH]c1=O
Result: 99.2

Q: Input O=C(CSc1ncc(C(=O)O)c(=O)[nH]1)c1ccccc1 , output reported remaining activity at 100 µM.
Result: 103

Q: Could you please provide reported remaining activity at 100 µM for CCOC(=O)/C=C\Sc1ncc(C(=O)O)c(=O)[nH]1 ? Thanks!
Result: 103

Q: Please look at this compound and report its remaining activity at 100 µM: O=C(O)c1cnc(SCCc2ccccc2)[nH]c1=O
Result: 102

Q: Give a short answer stating reported remaining activity at 100 µM for CCCCCCCCCSc1ncc(C(=O)O)c(=O)[nH]1 .
Result: 104

Q: Determine its reported remaining activity at 100 µM: CCCCCCCCCCCCCCCc1cccc(O)c1C(=O)O [Anacardic Acid (AA), reference compound]
Result: 4.7

Q: Find the measured remaining activity at 100 µM of CCCCCSc1ncc(C(=O)O)c(=O)[nH]1 and report it.
Result: 100

Q: Please give measured remaining activity at 100 µM of the following entry: CSc1ncc(C(=O)O)c(=O)[nH]1
Result: 100

Q: Find the measured remaining activity at 100 µM of CCCCSc1ncc(C(=O)O)c(=O)[nH]1 and report it.
Result: 101

Q: For O=C(O)c1cnc(SCCCc2ccccc2)[nH]c1=O , write its remaining activity at 100 µM.
Result: 101

Q: Return the recorded remaining activity at 100 µM value; entry: O=C(O)c1c[nH]c(=S)[nH]c1=O
Result: 99.2
